Test: Fractional inhibitory concentration (FIC) tested against Peruvian PC49 cells, isolate from South America
Format: functional, Plasmodium falciparum
valueType: FIC

>  <chemicalStructure>
c1ccc2c(c1)CCc1ccccc1N2CCCCN1CCCCC1

>  <endpointResult>
0.73

$$$$
>  <chemicalStructure>
c1ccc2c(c1)CCc1ccccc1N2CCCCN1CCCC1

>  <endpointResult>
0.66

$$$$
>  <chemicalStructure>
c1ccc2c(c1)Sc1ccccc1N2CCCCN1CCOCC1

>  <endpointResult>
0.81

$$$$
>  <chemicalStructure>
c1ccc2c(c1)CCc1ccccc1N2CCCCN1CCOCC1

>  <endpointResult>
0.78

$$$$
>  <chemicalStructure>
CCN(CC)CCCCCN1c2ccccc2CCc2ccccc21

>  <endpointResult>
0.82

$$$$
>  <chemicalStructure>
CCN(CC)CCCCN1c2ccccc2Sc2ccccc21

>  <endpointResult>
0.41

$$$$
>  <chemicalStructure>
CCN(CC)CCCCN1c2ccccc2C=Cc2ccccc21

>  <endpointResult>
0.6

$$$$
>  <chemicalStructure>
c1ccc2c(c1)CCc1ccccc1N2CCCCCCN1CCCC1

>  <endpointResult>
0.92

$$$$
>  <chemicalStructure>
c1ccc2c(c1)Sc1ccccc1N2CCCCN1CCCCC1

>  <endpointResult>
0.83

$$$$
